Sourced from patent US12503438B2

The entries below are paired with their reported IC50.
- target desc: KDR (Homo sapiens, UniProt P35968)
- test method notes: KDR autophosphorylation ELISA in HUVEC cells
- Format: cell-based
- Design: endogenous in cells; host or cells: HUVEC (Lonza #C2519A)
- recorded conditions: cellular activity, VEGF165-stimulated, phospho-KDR ELISA
- Sequence (P35968 20-1356): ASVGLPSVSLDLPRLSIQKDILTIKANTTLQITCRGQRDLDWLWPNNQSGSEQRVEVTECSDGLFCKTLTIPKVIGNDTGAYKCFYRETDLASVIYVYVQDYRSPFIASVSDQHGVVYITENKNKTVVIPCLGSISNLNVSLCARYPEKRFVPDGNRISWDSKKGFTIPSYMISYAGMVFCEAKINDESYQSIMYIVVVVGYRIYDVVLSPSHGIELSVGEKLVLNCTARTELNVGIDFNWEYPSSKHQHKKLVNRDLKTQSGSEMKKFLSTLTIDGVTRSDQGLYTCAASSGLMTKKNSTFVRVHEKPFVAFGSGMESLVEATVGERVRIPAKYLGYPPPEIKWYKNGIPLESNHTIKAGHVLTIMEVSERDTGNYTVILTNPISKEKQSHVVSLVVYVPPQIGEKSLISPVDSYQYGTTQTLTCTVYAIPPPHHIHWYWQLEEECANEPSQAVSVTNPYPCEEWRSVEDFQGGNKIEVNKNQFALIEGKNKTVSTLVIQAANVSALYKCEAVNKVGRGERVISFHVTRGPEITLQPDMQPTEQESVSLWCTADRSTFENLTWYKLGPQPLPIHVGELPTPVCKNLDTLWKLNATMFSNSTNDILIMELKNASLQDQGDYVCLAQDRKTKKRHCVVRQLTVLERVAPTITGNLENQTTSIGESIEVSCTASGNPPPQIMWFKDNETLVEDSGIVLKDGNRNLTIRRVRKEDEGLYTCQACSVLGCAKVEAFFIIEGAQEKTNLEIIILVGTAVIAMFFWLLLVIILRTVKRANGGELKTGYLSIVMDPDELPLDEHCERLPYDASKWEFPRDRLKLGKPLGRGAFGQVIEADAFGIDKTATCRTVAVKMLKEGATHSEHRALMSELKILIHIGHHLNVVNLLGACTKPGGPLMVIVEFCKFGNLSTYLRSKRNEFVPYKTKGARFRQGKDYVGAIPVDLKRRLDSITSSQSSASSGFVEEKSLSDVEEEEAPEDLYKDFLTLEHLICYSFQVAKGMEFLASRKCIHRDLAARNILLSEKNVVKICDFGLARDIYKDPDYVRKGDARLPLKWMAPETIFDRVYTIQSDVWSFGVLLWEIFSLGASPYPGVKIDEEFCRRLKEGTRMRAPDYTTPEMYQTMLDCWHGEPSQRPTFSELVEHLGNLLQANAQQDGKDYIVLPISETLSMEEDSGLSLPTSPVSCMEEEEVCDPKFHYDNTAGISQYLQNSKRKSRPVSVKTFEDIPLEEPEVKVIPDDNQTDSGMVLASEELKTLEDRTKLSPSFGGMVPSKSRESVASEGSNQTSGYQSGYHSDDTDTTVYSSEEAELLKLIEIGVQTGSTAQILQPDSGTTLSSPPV

{"compound": "O=C(Nc1ccc(F)cc1)C1(C(=O)Nc2ccc(Oc3ccnc4cc(-c5cnn(CCO)c5)ccc34)cc2)CC1", "IC50": "≤ 10 nM"}
{"compound": "Cc1cc(F)cc(C)c1NC(=O)C1(C(=O)Nc2ccc(Oc3ccnc4cc(-c5cnn(C)c5)ccc34)cc2)CC1", "IC50": "> 300 nM"}
{"compound": "O=C(Nc1ccc(F)cc1)C1(C(=O)Nc2ccc(Oc3ccnc4cc(-c5ccnnc5)ccc34)cc2)CC1", "IC50": "10 to 100 nM"}
{"compound": "O=C(Nc1ccc(F)cc1)C1(C(=O)Nc2ccc(Oc3ccnc4cc(-c5cn[nH]c5)ccc34)cc2)CC1", "IC50": "≤ 10 nM"}
{"compound": "O=C(Nc1ccc(F)cc1)C1(C(=O)Nc2ccc(Oc3ccnc4cc(-c5nnco5)ccc34)cc2)CC1", "IC50": "10 to 100 nM"}
{"compound": "O=C(Nc1ccc(F)cc1)C1(C(=O)Nc2ccc(Oc3ccnc4cc(-c5cnn(CC(F)F)c5)ccc34)cc2)CC1", "IC50": "10 to 100 nM"}
{"compound": "O=C(Nc1ccc(F)cc1)C1(C(=O)Nc2ccc(Oc3ccnc4cc(-c5cnn(CCF)c5)ccc34)cc2)CC1", "IC50": "10 to 100 nM"}
{"compound": "O=C(Nc1ccc(F)cc1)C1(C(=O)Nc2ccc(Oc3ccnc4cc(C5CCOC5)ccc34)cc2)CC1 (single isomer, unassigned) [Compound 89]", "IC50": "> 300 nM"}
{"compound": "Cc1cnn(-c2ccc3c(Oc4ccc(NC(=O)C5(C(=O)Nc6ccc(F)cc6)CC5)cc4)ccnc3c2)c1", "IC50": "10 to 100 nM"}
{"compound": "O=C(Nc1ccc(F)cc1)C1(C(=O)Nc2ccc(Oc3ccnc4cc(-c5ccn(C(F)F)n5)ccc34)cc2)CC1", "IC50": "10 to 100 nM"}
{"compound": "O=C(Nc1ccc(F)cc1)C1(C(=O)Nc2ccc(Oc3ccnc4cc(C5=CCOC5)ccc34)cc2)CC1", "IC50": "≤ 10 nM"}
{"compound": "O=C(Nc1ccc(F)cc1)C1(C(=O)Nc2ccc(Oc3ccnc4cc(-c5cnn(CCN6CCOCC6)c5)ccc34)cc2)CC1", "IC50": "10 to 100 nM"}
{"compound": "CCn1cc(-c2ccc3c(Oc4ccc(NC(=O)C5(C(=O)Nc6ccc(F)cc6)CC5)cc4)ccnc3c2)cn1", "IC50": "≤ 10 nM"}
{"compound": "O=C(Nc1ccc(F)cc1)C1(C(=O)Nc2ccc(Oc3ccnc4cc(-c5ccc[n+]([O-])c5)ccc34)cc2)CC1", "IC50": "≤ 10 nM"}

###

// reported IC50 for each item listed
- target desc: KDR (Homo sapiens)
- test method notes: Human KDR kinase assay (33P-phosphoryl transfer radiometric, KinaseProfiler)
- Design: Human KDR (residues K790-V1356, 55 nM); purchased Eurofins Pharma Discovery Services UK Limited (KinaseProfiler service)
- recorded conditions: biochemical activity; 10 μM ATP
- Sequence (P35968 790-1356): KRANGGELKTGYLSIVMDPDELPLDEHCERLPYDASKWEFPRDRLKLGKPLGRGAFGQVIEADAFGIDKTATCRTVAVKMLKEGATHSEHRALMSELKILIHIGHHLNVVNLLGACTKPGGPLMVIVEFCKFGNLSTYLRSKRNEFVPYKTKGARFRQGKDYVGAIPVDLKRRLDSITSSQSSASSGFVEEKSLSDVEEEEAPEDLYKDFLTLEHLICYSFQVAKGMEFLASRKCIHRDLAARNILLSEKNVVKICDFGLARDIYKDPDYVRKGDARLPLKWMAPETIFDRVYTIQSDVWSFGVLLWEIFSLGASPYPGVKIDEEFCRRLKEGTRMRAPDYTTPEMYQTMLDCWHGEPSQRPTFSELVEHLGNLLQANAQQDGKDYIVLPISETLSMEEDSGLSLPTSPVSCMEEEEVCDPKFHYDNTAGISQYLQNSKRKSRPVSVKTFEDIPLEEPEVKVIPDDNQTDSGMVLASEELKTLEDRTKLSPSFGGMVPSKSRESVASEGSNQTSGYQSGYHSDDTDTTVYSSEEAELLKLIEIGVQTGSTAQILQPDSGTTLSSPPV
readout type: IC50

{"compound": "C[Si](C)(C)C#Cc1ccc2c(Oc3ccc(NC(=O)C4(C(=O)Nc5ccc(F)cc5)CC4)cc3)ccnc2c1", "readout type": "IC50", "measured result": "100 to 1000 nM"}
{"compound": "CN(C(=O)C1(C(=O)Nc2ccc(Oc3ccnc4cc(-c5cnn(C)c5)ccc34)cc2)CC1)c1ccc(F)cc1 [Compound 82A]", "readout type": "IC50", "measured result": "100 to 1000 nM"}
{"compound": "Cn1nccc1-c1ccc2c(Oc3ccc(NC(=O)C4(C(=O)Nc5ccc(F)cc5)CC4)cc3)ccnc2c1", "readout type": "IC50", "measured result": "10 to 100 nM"}
{"compound": "O=C(Nc1ccc(F)cc1)C1(C(=O)Nc2ccc(Oc3ccnc4cc(-c5cnn(C6CC6)c5)ccc34)cc2)CC1", "readout type": "IC50", "measured result": "10 to 100 nM"}

###

- target desc: Met (Homo sapiens, UniProt P08581)
- test method notes: Human Met kinase assay (33P-phosphoryl transfer radiometric, KinaseProfiler)
- Design: Human Met (residues R974-S1390 with A1209G and V1290L, 3.4 nM); purchased Eurofins Pharma Discovery Services UK Limited (KinaseProfiler service)
- recorded conditions: biochemical activity; 10 μM ATP; read-out: c-Met IC50
- Procedure: Kinase activity and compound inhibition were investigated using the ^33P-Phosphoryl transfer radiometric kinase assay, performed using the KinaseProfiler™ service of Eurofins Pharma Discovery Services UK Limited. Dose-response experiments were performed using nine compound concentrations in a 96-well microtiter plate. […] IC50 values were calculated by nonlinear regression analysis using the sigmoidal dose-response (variable slope) curve fit on XLFit version 5.3 (ID Business Solutions). […]
- Sequence (P08581 974-1390): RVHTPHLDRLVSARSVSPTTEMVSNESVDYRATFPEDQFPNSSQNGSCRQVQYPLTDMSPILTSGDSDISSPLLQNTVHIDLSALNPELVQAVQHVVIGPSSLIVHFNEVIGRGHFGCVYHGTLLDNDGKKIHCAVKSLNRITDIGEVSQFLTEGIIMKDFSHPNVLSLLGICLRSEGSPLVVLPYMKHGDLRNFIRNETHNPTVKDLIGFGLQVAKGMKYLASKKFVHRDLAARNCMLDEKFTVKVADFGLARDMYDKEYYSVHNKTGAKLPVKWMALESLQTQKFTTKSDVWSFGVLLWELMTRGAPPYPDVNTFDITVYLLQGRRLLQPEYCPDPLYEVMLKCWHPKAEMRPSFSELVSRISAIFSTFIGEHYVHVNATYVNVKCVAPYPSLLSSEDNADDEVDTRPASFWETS
Below: a set of entries, each annotated with reported IC50.
readout type: IC50

{"compound": "C#Cc1ccc2c(Oc3ccc(NC(=O)C4(C(=O)Nc5ccc(F)cc5)CC4)cc3)ccnc2c1 [Compound 64]", "measured result": "≤ 10 nM"}
{"compound": "O=C(Nc1ccc(F)cc1)C1(C(=O)Nc2ccc(Oc3ccnc4cc(C5CCNC5)ccc34)cc2)CC1 (stereo not shown) [Compound 83]", "measured result": "≤ 10 nM"}
{"compound": "Cc1cc2c(Oc3ccc(NC(=O)C4(C(=O)Nc5ccc(F)cc5)CC4)cc3)ccnc2cc1-c1cnn(C)c1 [Compound 78]", "measured result": "≤ 10 nM"}
{"compound": "O=C(Nc1ccc(F)cc1)C1(C(=O)Nc2ccc(Oc3ccnc4cc(-c5cnn[nH]5)ccc34)cc2)CC1 [Compound 65]", "measured result": "100 to 1000 nM"}

###

- target desc: Met (Homo sapiens)
- test method notes: Met autophosphorylation ELISA in PC-3 cells
- Type: cell-based
- Design: endogenous in cells; host or cells: PC-3 prostate cancer cells (ATCC #CRL-1435)
- recorded conditions: cellular activity, HGF-stimulated, phospho-Met ELISA, read-out: c-Met IC50
- Sequence (P08581 25-1390): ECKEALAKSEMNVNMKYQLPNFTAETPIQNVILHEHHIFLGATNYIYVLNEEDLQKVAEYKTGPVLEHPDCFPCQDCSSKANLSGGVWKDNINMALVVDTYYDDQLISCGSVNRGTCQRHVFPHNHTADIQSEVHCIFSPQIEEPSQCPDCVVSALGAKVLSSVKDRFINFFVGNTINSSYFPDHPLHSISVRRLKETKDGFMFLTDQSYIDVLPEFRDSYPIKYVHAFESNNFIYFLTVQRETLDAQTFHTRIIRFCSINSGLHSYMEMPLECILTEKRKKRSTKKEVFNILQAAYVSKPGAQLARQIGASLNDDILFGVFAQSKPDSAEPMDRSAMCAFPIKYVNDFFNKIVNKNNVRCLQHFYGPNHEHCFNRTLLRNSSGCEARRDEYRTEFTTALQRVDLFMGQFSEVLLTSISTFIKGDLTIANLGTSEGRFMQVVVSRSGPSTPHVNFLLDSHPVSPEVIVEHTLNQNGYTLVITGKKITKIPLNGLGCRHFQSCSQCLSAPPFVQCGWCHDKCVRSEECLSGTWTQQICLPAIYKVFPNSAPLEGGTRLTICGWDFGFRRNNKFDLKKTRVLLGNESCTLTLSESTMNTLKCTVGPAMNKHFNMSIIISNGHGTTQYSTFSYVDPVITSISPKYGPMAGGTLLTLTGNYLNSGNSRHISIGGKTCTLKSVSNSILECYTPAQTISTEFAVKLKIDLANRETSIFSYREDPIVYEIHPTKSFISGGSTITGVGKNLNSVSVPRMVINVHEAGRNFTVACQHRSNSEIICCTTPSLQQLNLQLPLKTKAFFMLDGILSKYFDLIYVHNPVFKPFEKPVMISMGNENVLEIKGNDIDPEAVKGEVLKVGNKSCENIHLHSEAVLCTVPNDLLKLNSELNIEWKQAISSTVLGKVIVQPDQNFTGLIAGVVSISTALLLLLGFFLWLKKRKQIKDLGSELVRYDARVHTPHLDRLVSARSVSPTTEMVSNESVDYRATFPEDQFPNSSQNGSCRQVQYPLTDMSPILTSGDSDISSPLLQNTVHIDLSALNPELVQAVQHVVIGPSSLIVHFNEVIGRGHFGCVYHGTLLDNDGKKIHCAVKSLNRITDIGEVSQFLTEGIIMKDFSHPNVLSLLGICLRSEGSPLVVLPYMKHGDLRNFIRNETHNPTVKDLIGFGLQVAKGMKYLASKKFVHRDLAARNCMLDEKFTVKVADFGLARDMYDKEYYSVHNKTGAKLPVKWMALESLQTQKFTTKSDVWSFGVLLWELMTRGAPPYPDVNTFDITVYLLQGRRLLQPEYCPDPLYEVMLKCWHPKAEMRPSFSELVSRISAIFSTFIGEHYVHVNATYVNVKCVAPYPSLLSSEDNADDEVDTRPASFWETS
readout type: IC50

{"smiles string": "Cc1cncc(-c2ccc3c(Oc4ccc(NC(=O)C5(C(=O)Nc6ccc(F)cc6)CC5)cc4)ccnc3c2)c1", "readout type": "IC50", "measured result": "0.1 to 0.3 µM"}
{"smiles string": "Nc1cc(-c2ccc3c(Oc4ccc(NC(=O)C5(C(=O)Nc6ccc(F)cc6)CC5)cc4)ccnc3c2)ccn1", "readout type": "IC50", "measured result": "0.01 to 0.1 µM"}
{"smiles string": "COc1cc(-c2ccc3c(Oc4ccc(NC(=O)C5(C(=O)Nc6ccc(F)cc6)CC5)cc4)ccnc3c2)ccn1", "readout type": "IC50", "measured result": "0.01 to 0.1 µM"}
{"smiles string": "O=C(Nc1ccc(F)cc1)C1(C(=O)Nc2ccc(Oc3ccnc4cc(-c5ccccc5)ccc34)cc2)CC1", "readout type": "IC50", "measured result": "0.1 to 0.3 µM"}
{"smiles string": "CC(C)(C)n1cc(-c2ccc3c(Oc4ccc(NC(=O)C5(C(=O)Nc6ccc(F)cc6)CC5)cc4)ccnc3c2)cn1", "readout type": "IC50", "measured result": "0.01 to 0.1 µM"}
{"smiles string": "Cc1cn(-c2ccc3c(Oc4ccc(NC(=O)C5(C(=O)Nc6ccc(F)cc6)CC5)cc4)ccnc3c2)cn1", "readout type": "IC50", "measured result": "0.01 to 0.1 µM"}
{"smiles string": "Cc1cc2c(Oc3cc(F)c(NC(=O)C4(C(=O)Nc5ccc(F)cc5)CC4)cc3F)ccnc2cc1-c1ncc[nH]1", "readout type": "IC50", "measured result": "0.01 to 0.1 µM"}
{"smiles string": "O=C(Nc1ccc(F)cc1)C1(C(=O)Nc2ccc(Oc3ccnc4cc(-c5cccnc5)ccc34)c(F)c2)CC1", "readout type": "IC50", "measured result": "0.01 to 0.1 µM"}
{"smiles string": "O=C(Nc1ccc(F)cc1)C1(C(=O)Nc2ccc(Oc3ccnc4cc(-c5ccncn5)ccc34)cc2)CC1", "readout type": "IC50", "measured result": "0.01 to 0.1 µM"}
{"smiles string": "N#Cc1cc(-c2ccc3c(Oc4ccc(NC(=O)C5(C(=O)Nc6ccc(F)cc6)CC5)cc4)ccnc3c2)ccn1", "readout type": "IC50", "measured result": "0.01 to 0.1 µM"}
{"smiles string": "O=C(Nc1ccc(F)cc1)C1(C(=O)Nc2ccc(Oc3ccnc4cc(-c5nnco5)ccc34)cc2)CC1", "readout type": "IC50", "measured result": "0.01 to 0.1 µM"}
{"smiles string": "Cc1cc2c(Oc3ccc(NC(=O)C4(C(=O)Nc5ccc(F)cc5)CC4)cc3F)ccnc2cc1-c1ncc[nH]1", "readout type": "IC50", "measured result": "0.01 to 0.1 µM"}
{"smiles string": "O=C(Nc1ccc(F)cc1)C1(C(=O)Nc2ccc(Oc3ccnc4cc(-c5cnn(C6COC6)c5)ccc34)cc2)CC1", "readout type": "IC50", "measured result": "≤ 0.01 µM"}
{"smiles string": "CS(=O)(=O)n1cc(-c2ccc3c(Oc4ccc(NC(=O)C5(C(=O)Nc6ccc(F)cc6)CC5)cc4)ccnc3c2)cn1", "readout type": "IC50", "measured result": "0.01 to 0.1 µM"}
